Measured values drawn from PubChem BioAssay (NCI) for this set.

Test system: NCI-H23 lung
Experiment: NCI tumour cell line growth inhibition, 48 h
ENDPOINT: TGI

>  <STRUCTURE SMILES>
Cc1ccc(-c2nc(SCC(=O)O)n[nH]2)cc1

>  <REPORTED RESULT>
> 100 µM

$$$$
>  <STRUCTURE SMILES>
O=C/C(=C(/Br)I)c1ccccc1

>  <REPORTED RESULT>
12.7 µM

$$$$
>  <STRUCTURE SMILES>
Cc1ccc(NC(=O)c2cccc([N+](=O)[O-])c2O)c([N+](=O)[O-])c1

>  <REPORTED RESULT>
27.6 µM

$$$$
>  <STRUCTURE SMILES>
CCCCCCCC/C=C/CCCCCCCC1=NCC[N+]1(CCO)CCO

>  <REPORTED RESULT>
16 µM

$$$$
>  <STRUCTURE SMILES>
O=C1Nc2cccc(Cl)c2/C1=C\c1c(Cl)nc2sccn12

>  <REPORTED RESULT>
66.3 µM

$$$$
>  <STRUCTURE SMILES>
O=C(/C=C/c1ccc(Cl)cc1)Oc1ccc(/C=C2\CCCCC2=O)cc1

>  <REPORTED RESULT>
> 100 µM

$$$$

====

# maps each entry to its TGI
System: HOP-62 NSCLC
Experiment: NCI tumour cell line growth inhibition, 48 h

>  <COMPOUND>
O=C1C(/C=C/c2ccc(Cl)cc2)=NNC2N1N=C1NC(=O)C3(NN12)c1ccccc1-c1ccccc13 (stereo unspecified)

>  <TGI>
> 100 µM

$$$$
>  <COMPOUND>
O=S(O)CCCCCSSCCCCSSCCCCCS(=O)O

>  <TGI>
> 100 µM

$$$$
>  <COMPOUND>
CC(C)c1ccccc1NC(=O)C(=O)Cc1nc2ccccc2s1

>  <TGI>
> 100 µM

$$$$
>  <COMPOUND>
CCn1cc(/C=C/C(C)c2cn(CC)c(=O)[nH]c2=O)c(=O)[nH]c1=O (stereo unspecified)

>  <TGI>
> 100 µM

$$$$
>  <COMPOUND>
COc1ccc(/C=C2\CCCCC2=O)cc1

>  <TGI>
> 100 µM

$$$$
>  <COMPOUND>
CC(=O)c1c(C(F)(F)F)n([O-])c2ccc(Cl)cc2[n+]1=O

>  <TGI>
1.86 µM

$$$$

====

As shown below, each of these molecules has a reported TGI value.
System: SF-268 CNS
Experiment: NCI tumour cell line growth inhibition, 48 h

>  <MOLECULE>
C/C(=N\NC(=O)c1ccncc1)c1ccc2ccccc2c1O

>  <TGI>
40.8 µM

$$$$
>  <MOLECULE>
NC(=NCCCOc1ccc(Cl)cc1)Nc1ccc(Cl)cc1

>  <TGI>
13 µM

$$$$
>  <MOLECULE>
COc1ccc(C2=NNC(=O)OC2c2ccccc2)cc1 (stereo not drawn)

>  <TGI>
> 100 µM

$$$$
>  <MOLECULE>
NC(=O)N1N=C2c3ccccc3CC[C@@H]2C1c1ccccc1 (stereo partly drawn)

>  <TGI>
> 100 µM

$$$$
>  <MOLECULE>
CCCCc1c2c(nc3c1CCCC3O)/C(=C/c1ccccc1)CCC2 (stereo not drawn)

>  <TGI>
85.3 µM

$$$$
>  <MOLECULE>
N#Cc1c(-c2ccc([N+](=O)[O-])cc2)cc(-c2ccc(Nc3ccnc4cc(C(F)(F)F)ccc34)cc2)nc1N

>  <TGI>
> 72 µM

$$$$
>  <MOLECULE>
CN(C)c1ccc(/C=C(/NC(=O)c2ccccc2)c2nc3ccc(Cl)cc3[nH]2)cc1

>  <TGI>
> 100 µM

$$$$
>  <MOLECULE>
CCn1cc(/C=C/C(C)c2cn(CC)c(=O)[nH]c2=O)c(=O)[nH]c1=O (stereo not drawn)

>  <TGI>
> 100 µM

$$$$
>  <MOLECULE>
CCCc1cc(=O)oc2c3c(c4c(c12)OC(C)(C)C=C4)O[C@@H](C)[C@H](C)C3=O

>  <TGI>
45.2 µM

$$$$
>  <MOLECULE>
CC(C)NC(=O)CN1CCN(C2=CC(=O)c3c(O)ccc(O)c3C2=O)CC1

>  <TGI>
53.1 µM

$$$$
>  <MOLECULE>
CN1CN(c2ccccc2)C2(CCN(CCCSc3ccccc3NC(=O)/C=C/c3ccccc3)CC2)C1=O

>  <TGI>
> 46 µM

$$$$
>  <MOLECULE>
COC(=O)C(O)P(=O)(OC)OC (stereo not drawn)

>  <TGI>
> 100 µM

$$$$
>  <MOLECULE>
Cn1c2c(c3ccccc31)C1CCCCC1C1C(=O)NC(=O)C21 (stereo not drawn)

>  <TGI>
> 100 µM

$$$$
>  <MOLECULE>
CCCC/C=C/C1Cc2ccccc2CN1S(=O)(=O)c1ccc(C)cc1 (stereo not drawn)

>  <TGI>
30 µM

$$$$
>  <MOLECULE>
O=[N+]([O-])c1ccc(-c2nc(-c3ccccc3)c(-c3ccccc3)n2-c2ccccc2)cc1

>  <TGI>
17.6 µM

$$$$
>  <MOLECULE>
CC1=C2c3c(C)ccc4ccc(C)c(c34)C2(O)C(C)C1=O (stereo not drawn)

>  <TGI>
> 100 µM

$$$$
>  <MOLECULE>
N#Cc1c(-c2ccco2)cc(-c2ccc(NCc3nc4ccccc4[nH]3)cc2)nc1N

>  <TGI>
> 100 µM

$$$$
>  <MOLECULE>
CC1(C)CC(=O)C2=C(C1)OC1=C(C(=O)CC(C)(C)C1)C2CC(c1ccccc1)c1ccc(O)c(O)c1O (stereo not drawn)

>  <TGI>
> 10 µM

$$$$

====

System: SNB-19 CNS
Assay: NCI tumour cell line growth inhibition, 48 h

>  <COMPOUND>
CC(C)(C)c1ccc(-c2nc3ccc([N+](=O)[O-])cc3c(=O)o2)cc1

>  <UNIT INFO>
µM

>  <REPORTED RELATION>
>

>  <TGI>
100

$$$$
>  <COMPOUND>
Cc1cc(C)nc(NS(=O)(=O)c2ccc(Nc3c4ccccc4nc4c(C(=O)NCCCN(CCO)CCO)cccc34)cc2)n1

>  <UNIT INFO>
µM

>  <REPORTED RELATION>
>

>  <TGI>
100

$$$$
>  <COMPOUND>
O=P(Oc1ccccc1)(Oc1ccccc1)Oc1c[nH]c2ccccc12

>  <UNIT INFO>
µM

>  <REPORTED RELATION>
=

>  <TGI>
27.7

$$$$
>  <COMPOUND>
COc1ccc(-c2ccc(/C=N/n3c(COc4ccccc4Cl)nn(CN4CCN(C)CC4)c3=S)o2)c([N+](=O)[O-])c1

>  <UNIT INFO>
µM

>  <REPORTED RELATION>
>

>  <TGI>
100

$$$$
>  <COMPOUND>
CC(C)CCOc1ccc(-c2n[nH]c(C(F)(F)F)c2-c2cncc(C#N)c2)c(O)c1

>  <UNIT INFO>
µM

>  <REPORTED RELATION>
=

>  <TGI>
31.5

$$$$
>  <COMPOUND>
CC1OC(OC2C(O[C@H]3CC[C@@]4(C)[C@@H](CC[C@@H]5[C@@H]4CC[C@]4(C)[C@@H]6[C@H](C[C@@H]54)O[C@]4(CC[C@@H](C)CO4)[C@H]6C)C3)OC(CO)C(OC3OC(CO)C(O)C(OC4OCC(O)C(O)C4O)C3OC3OCC(O)C(O)C3O)C2O)C(O)C(O)C1O (some centres not stated)

>  <UNIT INFO>
µM

>  <REPORTED RELATION>
=

>  <TGI>
2.33

$$$$
>  <COMPOUND>
O=C1NC(Cc2c[nH]c3ccccc23)C(=O)N2C(C3CCCCC3)c3[nH]c4ccccc4c3C[C@@H]12 (some centres not stated)

>  <UNIT INFO>
µM

>  <REPORTED RELATION>
>

>  <TGI>
100

$$$$

====

Measured TGI values are reported for all entries that follow.
Tested on: SF-539 CNS
Assay: NCI tumour cell line growth inhibition, 48 h

>  <COMPOUND>
O=c1cc(N2CCOCC2)[nH]c(=O)n1-c1cccc(C(F)(F)F)c1

>  <TARGET OR TEST SYSTEM>
SF-539 CNS

>  <TGI>
> 100 µM

$$$$
>  <COMPOUND>
Cn1c(=O)cc(NCc2ccc(Cl)cc2)[nH]c1=O

>  <TARGET OR TEST SYSTEM>
SF-539 CNS

>  <TGI>
> 100 µM

$$$$
>  <COMPOUND>
C=C/C=C(\NC(=O)C(Cl)(Cl)Cl)[Si](C)(C)C

>  <TARGET OR TEST SYSTEM>
SF-539 CNS

>  <TGI>
> 100 µM

$$$$
>  <COMPOUND>
C=C1C[C@](OC)([C@H](O)C(=O)N[C@@H](OC)[C@@H]2C[C@@H](O)C(C)(C)[C@@H](C[C@@H](COC)OC)O2)O[C@H](C)[C@@H]1C

>  <TARGET OR TEST SYSTEM>
SF-539 CNS

>  <TGI>
0.00213 µM

$$$$
>  <COMPOUND>
Cc1ccc(S(=O)(=O)NN=C2CCCCCCCCCCC2)cc1

>  <TARGET OR TEST SYSTEM>
SF-539 CNS

>  <TGI>
> 100 µM

$$$$
>  <COMPOUND>
O=C1CCC[C@]2(CCC[C@@H](O)C2)N1

>  <TARGET OR TEST SYSTEM>
SF-539 CNS

>  <TGI>
> 100 µM

$$$$
>  <COMPOUND>
Cc1cccc(Oc2nccc(-c3c(-c4ccc(F)cc4)ncn3C3CCNCC3)n2)c1C

>  <TARGET OR TEST SYSTEM>
SF-539 CNS

>  <TGI>
10.4 µM

$$$$
>  <COMPOUND>
C=C(C)[C@@H]1CC[C@]2(C)[C@H](C(=O)C=C3[C@@H]4C[C@](C)(C(=O)N5CCN(C)CC5)CC[C@]4(C)CC[C@]32C)[C@@]1(C)CCC#N

>  <TARGET OR TEST SYSTEM>
SF-539 CNS

>  <TGI>
12.7 µM

$$$$
>  <COMPOUND>
CCCCCC(O)C1C(=O)OC(C)C(O)/C=C/C=C/C=C/C=C\C=C(\C)C(O)CC(O)CC(O)CC(O)CC(O)CC(O)CC1O (centres undefined)

>  <TARGET OR TEST SYSTEM>
SF-539 CNS

>  <TGI>
> 100 µM

$$$$
